Task for the reader: assign each of the following binders its reported Average IC50 (nM), cell-based cAMP assay, SK-N-MC cells, 3 nM human α-CGRP.
- ASSAYED TARGET: human CGRP receptor (human CRLR / human RAMP1 heterodimer) (human, UniProt Q16602 23-461; O60894 27-148)
- Sequence (Q16602 23-461 limits assumed, chain 1 of 2): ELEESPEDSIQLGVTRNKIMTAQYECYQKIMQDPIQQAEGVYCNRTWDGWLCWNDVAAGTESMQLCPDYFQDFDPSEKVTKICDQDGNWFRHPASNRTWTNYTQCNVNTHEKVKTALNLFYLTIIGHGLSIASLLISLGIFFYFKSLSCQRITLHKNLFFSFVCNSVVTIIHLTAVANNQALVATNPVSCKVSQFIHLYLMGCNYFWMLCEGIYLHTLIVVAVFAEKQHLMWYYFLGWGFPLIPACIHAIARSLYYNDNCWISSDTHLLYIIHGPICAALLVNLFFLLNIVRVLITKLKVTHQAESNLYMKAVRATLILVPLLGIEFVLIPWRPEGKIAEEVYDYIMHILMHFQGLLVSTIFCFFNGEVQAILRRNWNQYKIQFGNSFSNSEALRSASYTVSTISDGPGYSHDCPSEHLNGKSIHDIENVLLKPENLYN
- Sequence (O60894 27-148 limits assumed, chain 2 of 2): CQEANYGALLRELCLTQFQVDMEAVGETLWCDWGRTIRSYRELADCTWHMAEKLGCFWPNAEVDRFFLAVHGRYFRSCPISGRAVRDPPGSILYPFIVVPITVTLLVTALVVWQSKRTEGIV
- ASSAY REMARKS: cell-based or functional assay
Numbers only, in nM.

Before answering, review these 2 worked examples.
1) anti-CGRP receptor variant antibody 07, bivalent monoclonal antibody (antibody, human IgG1, lambda, N297G, V domains shown) VH: QVQLVESGGGVVQPGRSLRLSCAASGFYFMTYGMHWVRQAPGKGLEWVAVISFDGSIKYSVDSVKGRFTISRDNSKNTLFLQMNSLRAEDTAVYYCARDRLNYYESSGYYHYKYYGMAVWGQGTTVTVSS VL: QSVLTQPPSVSAAPGQKVTISCSGSSSNIGNNYVSWYQQLPGTAPKLLIYDNNKRPSGIPDRFSGSKSGTSATLGITGLQTGDEADYYCGTWDSRLSAVVFGGGTKLTVLG | 0.29
2) anti-CGRP receptor variant antibody 08, bivalent monoclonal antibody (antibody, human IgG1, lambda, N297G, V domains shown) VH: QVQLVESGGGVVQPGRSLRLSCAASGFTFSSFGMHWVRQAPGKGLEWVAVISFDGSIKYSVDSVKGRFTISRDNSKNTLFLQMNSLRAEDTAVYYCARDRLNYYESSGYYHYKYYGMAVWGQGTTVTVSS VL: QSVLTQPPSVSAAPGQKVTISCSGSYSNIGWWPVSWYQQLPGTAPKLLIYDNNKRPSGIPDRFSGSKSGTSATLGITGLQTGDEADYYCGTWDSRLSAVVFGGGTKLTVLG | 0.3

Next item in the queue.
input: Given anti-CGRP receptor variant antibody 10, bivalent monoclonal antibody (antibody, human IgG1, lambda, N297G, V domains shown) VH: QVQLVESGGGVVQPGRSLRLSCAASGFFFGSYGMHWVRQAPGKGLEWVAVISFAGEIEHYVDSVKGRFTISRDNSKNTLFLQMNSLRAEDTAVYYCARDRLNYYESSGYYHYKYYGMAVWGQGTTVTVSS VL: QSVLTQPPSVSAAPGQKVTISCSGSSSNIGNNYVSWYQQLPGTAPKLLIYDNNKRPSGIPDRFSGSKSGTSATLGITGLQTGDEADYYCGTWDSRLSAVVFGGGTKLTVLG , state its recorded Average IC50 (nM), cell-based cAMP assay, SK-N-MC cells, 3 nM human α-CGRP.
output: 0.56
